MEASUREMENT_DESCRIPTION: Metabolic stability in mouse liver microsomes assessed as compound remaining at 1 uM after 60 mins by LC/MS/MS analysis in presence of NADPH regenerating system
Format: ADME
EXPERIMENTAL_CONDITIONS: read-out: Stability
ASSAY_READOUT: remaining at 1 h, 1 µM (%)

O=C(NCCC(O)CN1CCN(c2cccc(Cl)c2Cl)CC1)c1cnc2ccccc2c1 (centres undefined) : 4
OC(CCn1cc(-c2ccc3[nH]ccc3c2)nn1)CN1CCN(c2cccc(Cl)c2Cl)CC1 (racemic) : 35
OC(CCn1cc(-c2cnc3ccccc3c2)nn1)CN1CCN(c2cccc(Cl)c2Cl)CC1 (racemic) : 26
COc1ccccc1N1CCN(CC(O)CCn2cc(-c3ccc4[nH]ccc4c3)nn2)CC1 (racemic) : 27

* * *

MEASURED_TARGET: D(3) dopamine receptor (Homo sapiens)
Sequence (P35462 whole entry): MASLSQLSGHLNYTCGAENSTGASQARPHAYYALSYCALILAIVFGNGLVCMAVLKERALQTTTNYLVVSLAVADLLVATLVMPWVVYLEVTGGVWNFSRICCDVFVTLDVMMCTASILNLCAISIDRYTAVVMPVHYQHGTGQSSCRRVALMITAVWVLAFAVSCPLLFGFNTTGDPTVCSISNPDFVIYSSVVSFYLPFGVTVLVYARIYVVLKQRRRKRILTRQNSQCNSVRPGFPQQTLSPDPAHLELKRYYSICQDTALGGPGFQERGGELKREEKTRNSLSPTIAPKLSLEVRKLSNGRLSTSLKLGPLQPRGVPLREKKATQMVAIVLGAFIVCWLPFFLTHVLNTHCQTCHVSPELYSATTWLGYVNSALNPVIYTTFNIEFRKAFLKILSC
pKi: −log10 of the molar value.
ASSAY_READOUT: pKi

Known pKi results, listed for orientation:
Clc1cccc(N2CCN(CCCCn3cc(-c4ccc5ccccc5c4)nn3)CC2)c1Cl : 8.11
O=C(NCCC(O)CN1CCN(c2cccc(Cl)c2Cl)CC1)c1cnc2ccccc2c1 (stereo not given) : 8.54

1: OC(CCn1cc(-c2ccc(-c3ccccc3)cc2)nn1)CN1CCN(c2cccc(Cl)c2Cl)CC1 (racemic)
2: OC(CCn1cc(-c2ccc3[nH]ccc3c2)nn1)CN1CCN(c2cccc(Cl)c2Cl)CC1 (racemic)
3: COc1ccccc1N1CCN(CC(O)CCn2cc(-c3ccc(-c4ccccc4)cc3)nn2)CC1 (racemic)
Rank by pKi (largest to smallest). When ranking, write the labels in the order the request describes. 2, 3, 1

* * *

MEASUREMENT_DESCRIPTION: Metabolic stability in mouse liver microsomes assessed as compound remaining at 1 uM after 30 mins by LC/MS/MS analysis in presence of NADPH regenerating system
Assay type: ADME
EXPERIMENTAL_CONDITIONS: read-out: Stability
ASSAY_READOUT: remaining at 0.5 h, 1 µM (%)

OC(CCn1cc(-c2ccc3[nH]ccc3c2)nn1)CN1CCN(c2cccc(Cl)c2Cl)CC1 (racemic) : 45
COc1ccccc1N1CCN(CC(O)CCn2cc(-c3ccc4[nH]ccc4c3)nn2)CC1 (racemic) : 44

* * *

MEASURED_TARGET: D(2) dopamine receptor (Homo sapiens, UniProt P14416)
Sequence (P14416 whole entry): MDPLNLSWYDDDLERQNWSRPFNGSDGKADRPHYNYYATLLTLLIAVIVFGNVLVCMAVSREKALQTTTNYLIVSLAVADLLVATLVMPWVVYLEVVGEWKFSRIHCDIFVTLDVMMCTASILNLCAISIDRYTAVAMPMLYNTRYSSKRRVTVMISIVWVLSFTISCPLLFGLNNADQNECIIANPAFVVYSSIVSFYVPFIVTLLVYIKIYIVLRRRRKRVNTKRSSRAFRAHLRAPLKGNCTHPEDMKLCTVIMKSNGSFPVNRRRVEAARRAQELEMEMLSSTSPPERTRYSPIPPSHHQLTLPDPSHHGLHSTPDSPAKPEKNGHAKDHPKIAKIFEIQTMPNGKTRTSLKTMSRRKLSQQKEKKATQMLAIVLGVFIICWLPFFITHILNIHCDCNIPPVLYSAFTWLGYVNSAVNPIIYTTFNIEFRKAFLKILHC
MEASUREMENT_DESCRIPTION: Displacement of [3H]-N-methylspiperone from human dopamine D2 receptor expressed in HEK293 cell membranes after 1 hr by liquid scintillation counting analysis
pKi: −log10 of the molar value.
ASSAY_READOUT: pKi

A: COc1ccccc1N1CCN(CCCCn2cc(-c3ccccc3)nn2)CC1
B: COc1ccccc1N1CCN(CCCCc2cn(-c3ccc4c(c3)Cc3ccccc3-4)nn2)CC1
C: Clc1cccc(N2CCN(CCCCn3cc(-c4ccc5c(c4)Cc4ccccc4-5)nn3)CC2)c1Cl
D: COc1ccccc1N1CCN(CCCCc2cn(-c3ccc4ccccc4c3)nn2)CC1
Sort the listed molecules above so the one with the largest pKi comes first and the smallest comes last. When ranking, write the labels in the order the request describes. D, B, A, C

* * *

MEASURED_TARGET: D(2) dopamine receptor (Homo sapiens, UniProt P14416)
MEASUREMENT_DESCRIPTION: Displacement of [3H]-N-methylspiperone from human dopamine D2 receptor expressed in HEK293 cell membranes after 1 hr by liquid scintillation counting analysis
pKi: −log10 of the molar value.
ASSAY_READOUT: pKi

Known pKi results, listed for orientation:
COc1ccccc1N1CCN(CCCCn2cc(-c3ccc4[nH]ccc4c3)nn2)CC1 : 7.36
Clc1cccc(N2CCN(CCCCc3cn(-c4ccc5[nH]ccc5c4)nn3)CC2)c1Cl : 7.33
COc1ccccc1N1CCN(CCCCn2cc(-c3ccc(-c4ccccc4)cc3)nn2)CC1 : 7.16

P: COc1ccccc1N1CCN(CCCCc2cn(-c3ccc4[nH]ccc4c3)nn2)CC1
Q: Clc1cccc(N2CCN(CCCCn3cc(-c4ccc5ccccc5c4)nn3)CC2)c1Cl
Of P and Q , whose reported pKi is the larger number? Write down the label attached to your selection. P
